target: Disintegrin and metalloproteinase domain-containing protein 17 (Homo sapiens, UniProt P78536); experiment: exosite inhibitors of ADAM17, dose response, biochemical (AID 743260)
Sequence (P78536 whole entry, the tested form may be a part): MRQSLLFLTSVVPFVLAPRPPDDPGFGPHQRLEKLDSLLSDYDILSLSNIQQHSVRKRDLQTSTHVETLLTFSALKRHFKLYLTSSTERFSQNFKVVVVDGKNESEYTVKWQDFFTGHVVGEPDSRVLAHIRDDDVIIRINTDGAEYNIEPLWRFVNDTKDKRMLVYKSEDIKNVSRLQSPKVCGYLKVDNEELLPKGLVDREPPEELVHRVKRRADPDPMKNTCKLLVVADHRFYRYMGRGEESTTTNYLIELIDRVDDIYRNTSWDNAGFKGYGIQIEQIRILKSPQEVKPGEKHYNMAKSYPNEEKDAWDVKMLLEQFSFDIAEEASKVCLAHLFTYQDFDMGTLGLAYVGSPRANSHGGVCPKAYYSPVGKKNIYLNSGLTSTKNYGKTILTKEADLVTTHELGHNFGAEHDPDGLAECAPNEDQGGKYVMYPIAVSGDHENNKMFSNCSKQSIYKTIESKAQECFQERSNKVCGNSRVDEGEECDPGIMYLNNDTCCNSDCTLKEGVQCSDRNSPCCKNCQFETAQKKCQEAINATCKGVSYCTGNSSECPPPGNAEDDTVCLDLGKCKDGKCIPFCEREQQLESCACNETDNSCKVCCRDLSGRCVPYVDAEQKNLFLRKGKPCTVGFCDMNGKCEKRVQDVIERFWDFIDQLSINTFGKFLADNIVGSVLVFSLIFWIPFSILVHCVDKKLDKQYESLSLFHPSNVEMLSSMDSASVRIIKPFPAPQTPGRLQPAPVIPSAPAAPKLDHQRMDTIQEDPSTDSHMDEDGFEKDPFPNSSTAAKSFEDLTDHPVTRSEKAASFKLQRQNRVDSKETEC
The source made the active and inactive calls.
Parameter: IC50. Scope: all listed entries.

| compound | IC50 |
| --- | --- |
| COc1ccc(NC(S)=Nc2nc(CC(=O)Nc3ccccc3OC)cs2)cc1 | > 69.5 µM (inactive) |
| COC(=O)C1=C(c2ccc(F)cc2OCc2ccccc2)C[C@@H]2CC[C@H]1N2C(=O)NCc1cccc(C(F)(F)F)c1 | > 69.5 µM (inactive) |
| CCC(C(=O)O)N1C(=O)/C(=C/c2cccn2C)SC1=S (centres undefined) | > 23.2 µM (inactive) |
| CCc1noc(C)c1C(=O)OC(C)C(=O)Nc1ccc2c(c1)OCO2 (centres undefined) | > 69.6 µM (inactive) |

----------
target: Dual specificity tyrosine-phosphorylation-regulated kinase 1A (Rattus norvegicus); type: biochemical, Homo sapiens
Calls of active or inactive are those of the source.

| molecule | AC50 |
| --- | --- |
| O=C(O)CC1OCC=C2CN3CCC45C6=CC(=O)C(O)=C([N+](=O)[O-])C6=NC4C1C2CC35 (stereo not given) | 3.17 µM (active) |
| Oc1ccc(Nc2nc(-c3ccccc3)nc3ccccc23)cc1 | 0.461 µM (active) |
| Oc1cccc(NC(=S)N=Nc2c(O)[nH]c3ccccc23)c1 | 12.4 µM (active) |
| NC(=O)CC(NC(=O)c1cccc(Br)c1)c1ccc(N2CCN(c3ccccn3)CC2)c([N+](=O)[O-])c1 (stereo not given) | 66.8 µM (active) |
| CS(=O)(=O)c1ccc(-c2cn3cc(C(=O)O)ccc3n2)cc1 | 1.96 µM (active) |

----------
Parameter: IC50. Scope: all listed entries.
target: Orexin receptor type 2 (Homo sapiens, UniProt O43614); test: Counterscreen assay for antagonists of the orexin 1 receptor (OX1R; HCRTR1): Homogeneous Time Resolved Fluorescence (HTRF)-based cell-based dose response assay for antagonists of the orexin 2 receptor (OX2R; HCRTR2), run by assay provider.; format: functional
Sequence (O43614 whole entry): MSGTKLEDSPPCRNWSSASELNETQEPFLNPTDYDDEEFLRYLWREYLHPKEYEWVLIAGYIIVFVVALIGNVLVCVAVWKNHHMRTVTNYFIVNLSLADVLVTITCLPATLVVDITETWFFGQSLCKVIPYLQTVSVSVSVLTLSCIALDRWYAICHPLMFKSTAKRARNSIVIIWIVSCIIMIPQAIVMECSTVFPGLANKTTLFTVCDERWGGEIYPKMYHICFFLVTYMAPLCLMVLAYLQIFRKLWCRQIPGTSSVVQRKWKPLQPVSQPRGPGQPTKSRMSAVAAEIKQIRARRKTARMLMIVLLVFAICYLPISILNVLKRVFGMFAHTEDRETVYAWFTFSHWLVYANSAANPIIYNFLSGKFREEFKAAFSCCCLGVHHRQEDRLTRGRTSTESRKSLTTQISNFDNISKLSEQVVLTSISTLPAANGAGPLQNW
Calls of active or inactive are those of the source.

| compound | IC50 |
| --- | --- |
| c1ccc(CN2CCN(C3CCCSc4ccccc43)CC2)cc1 (centres undefined) | > 50 µM (inactive) |
| COc1ccc(OC)c(S(=O)(=O)NCC(c2ccco2)N2CCc3ccccc32)c1 (centres undefined) | > 50 µM (inactive) |
| C=CCn1c(SCc2ccc(C(=O)Nc3nccs3)cc2)nnc1-c1ccc(C)c(Cl)c1 | > 50 µM (inactive) |
| CCOc1ccccc1C(=O)NCCNC(=O)c1ccccc1OCC | 2.78 µM (active) |

----------
tested on: BJ; experiment: cytotoxicity toward BJ-TERT fibroblasts, dose response, cell-based, RAS-independent, luminescence (AID 1933); format: functional; conditions: Homo sapiens
Activity calls are given as the source filed them.
Parameter: EC50. Scope: all listed entries.

| compound | testedOn | EC50 |
| --- | --- | --- |
| COc1ccc(CCNc2nnc(Sc3nnnn3-c3ccccc3)s2)cc1OC | BJ | 2.95 µM (active) |
| CC1=Nc2cc(C(=O)NCCCOC(C)C)ccc2Sc2ccccc21 | BJ | 15.4 µM (active) |
| CCC(CC)c1nnc(NC(=O)CC(C)c2ccccc2)s1 (stereo unspecified) | BJ | > 150 µM (not active) |
| CN1C(=O)NC(=O)/C(=C/c2ccc([N+](=O)[O-])s2)C1=O | BJ | 11.2 µM (active) |
| Cc1cc[n+](CC(=O)c2cccc([N+](=O)[O-])c2)c2ccccc12 | BJ | 25.1 µM (active) |
| CC(C)(C)c1ccc(C(=O)NC(=S)Nc2ccc(N3CCOCC3)cc2)cc1 | BJ | 18.2 µM (active) |
